Recorded values, source patent US20040259798A1.

Target: β2 integrins on THP-1 cells
Experiment: inhibition (partial) of THP-1 cell adhesion to coated type IV collagen, phosphatase assay
Bridge positions count the residues as written; N and C are the ends. Ends that are not written are not given here.
Assay Metric: pIC50
Entry type: numeric. Quantity: pIC50, the -log10 of concentration in molar units.

Prompt: State, in one line, measured pIC50 of CPCFLLGCC (disulfide 1-8, 3-9) [C(1-8;3-9) peptide]
Response: 3.70
